Test: In vitro plasma stability
Type: in vitro ADME
Settings: rat, pH 7.4
Residues, ends and D or L forms follow the SMILES beside them.

| compound | half-life at 500 ng/mL |
| --- | --- |
| CC(C)C[C@H](NC(=O)[C@H](CCCCN)NC(=O)[C@H](CCCNC(=N)N)NC(=O)[C@@H]1CCCN1C(=O)[C@H](CCC(=O)O)NC(=O)CNC(=O)[C@H](Cc1ccc(O)cc1)NC(=O)[C@H](C)NC(=O)[C@@H](N)CO)C(=O)O [peptide 1] (H-SAYGEPRKL-OH; N-terminus and C-terminus assumed) | ~5 min |
| CC[C@H](C)[C@H](NC(=O)[C@@H](N)[C@@H](C)O)C(=O)N[C@@H](Cc1c[nH]c2ccccc12)C(=O)N[C@@H](CCSC)C(=O)N[C@@H](CC(C)C)C(=O)N[C@@H](CC(C)C)C(=O)N[C@@H](CCSC)C(=O)N[C@@H](CC(C)C)C(=O)N[C@@H](CCC(N)=O)C(=O)O [peptide 2] (H-TIWMLLMLQ-OH) | ~5 min |
